Biological target: T1, Human IL2Rγ extracellular domain expressed with a C-terminal myc-myc-hexahistidine tag (human)
T1 construct: also called hIL-2Rg-MMH; hIL-2RG-MMH
T1 chain: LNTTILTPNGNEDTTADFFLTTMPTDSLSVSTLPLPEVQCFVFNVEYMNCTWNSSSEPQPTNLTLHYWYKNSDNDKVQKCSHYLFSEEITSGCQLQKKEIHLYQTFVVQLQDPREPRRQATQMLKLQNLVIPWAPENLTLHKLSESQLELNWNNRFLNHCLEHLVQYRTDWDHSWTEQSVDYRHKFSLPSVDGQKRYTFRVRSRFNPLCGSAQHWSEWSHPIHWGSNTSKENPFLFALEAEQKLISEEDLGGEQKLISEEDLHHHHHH
Experiment: SPR, captured mAb, 25C, dissociation pH 6.0
The following binders are shown together with reported 100 nM Ag Bound (RU) values.
Dear colleague, please return just the value in RU, with no unit written.

// below: answered binders
{"binder": "H4H12874P (antibody, human IgG4 S228P, kappa, V domains shown, anti-IL2Rgamma mAb expressed with human IgG4 Fc) VH: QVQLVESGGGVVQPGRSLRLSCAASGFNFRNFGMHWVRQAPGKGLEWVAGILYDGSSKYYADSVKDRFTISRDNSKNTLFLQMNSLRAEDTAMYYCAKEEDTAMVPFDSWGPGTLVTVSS VL: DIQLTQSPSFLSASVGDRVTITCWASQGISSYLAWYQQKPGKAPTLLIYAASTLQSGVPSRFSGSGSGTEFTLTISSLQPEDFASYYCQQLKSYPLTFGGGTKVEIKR", "endpoint-label": "100 nM Ag Bound (RU)", "units": "RU", "result-value": 66}
{"binder": "H4H12871P (antibody, human IgG4 S228P, kappa, V domains shown, anti-IL2Rgamma mAb expressed with human IgG4 Fc; also called REGN9434) VH: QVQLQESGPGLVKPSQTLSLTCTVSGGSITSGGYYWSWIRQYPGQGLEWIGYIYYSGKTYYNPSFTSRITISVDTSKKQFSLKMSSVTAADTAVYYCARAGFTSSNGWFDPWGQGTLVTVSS VL: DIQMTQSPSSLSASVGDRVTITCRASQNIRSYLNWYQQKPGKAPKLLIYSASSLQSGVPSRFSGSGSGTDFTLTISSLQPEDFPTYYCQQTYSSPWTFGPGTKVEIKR", "endpoint-label": "100 nM Ag Bound (RU)", "units": "RU", "result-value": 129}
{"binder": "H4H12900P (antibody, human IgG4 S228P, kappa, V domains shown, anti-IL2Rgamma mAb expressed with human IgG4 Fc) VH: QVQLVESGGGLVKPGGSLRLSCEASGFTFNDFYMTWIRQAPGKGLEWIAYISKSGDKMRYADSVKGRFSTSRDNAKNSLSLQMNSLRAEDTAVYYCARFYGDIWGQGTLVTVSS VL: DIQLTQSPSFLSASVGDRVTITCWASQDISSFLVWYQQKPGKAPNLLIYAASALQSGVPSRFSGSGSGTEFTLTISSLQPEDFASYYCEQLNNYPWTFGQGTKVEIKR", "endpoint-label": "100 nM Ag Bound (RU)", "units": "RU", "result-value": 101}
{"binder": "H4H12884P (antibody, human IgG4 S228P, kappa, V domains shown, anti-IL2Rgamma mAb expressed with human IgG4 Fc) VH: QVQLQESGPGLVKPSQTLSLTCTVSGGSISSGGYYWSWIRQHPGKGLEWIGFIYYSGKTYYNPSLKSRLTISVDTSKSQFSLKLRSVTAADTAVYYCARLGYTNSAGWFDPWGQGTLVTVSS VL: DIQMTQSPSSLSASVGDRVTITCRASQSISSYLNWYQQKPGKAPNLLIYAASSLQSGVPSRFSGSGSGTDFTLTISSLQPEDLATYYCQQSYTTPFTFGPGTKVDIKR", "endpoint-label": "100 nM Ag Bound (RU)", "units": "RU", "result-value": 135}

Proceeding to the next binder to report its 100 nM Ag Bound (RU).
Notebook: H4H12886P (antibody, human IgG4 S228P, kappa, V domains shown, anti-IL2Rgamma mAb expressed with human IgG4 Fc) VH: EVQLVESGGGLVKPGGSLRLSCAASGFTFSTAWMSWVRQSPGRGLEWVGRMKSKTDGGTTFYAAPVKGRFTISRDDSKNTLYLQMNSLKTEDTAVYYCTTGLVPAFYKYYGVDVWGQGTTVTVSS VL: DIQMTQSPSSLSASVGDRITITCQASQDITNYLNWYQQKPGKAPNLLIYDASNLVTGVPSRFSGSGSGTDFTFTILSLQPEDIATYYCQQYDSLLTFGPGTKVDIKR , 100 nM Ag Bound (RU) read as 84
